compounds and their reported mortality
# procedure-summary: Toxicity in Swiss albino mouse assessed as mortality at 0.75 mmol/kg, ip measured 7 to 11 mins before pentylenetetrazole challenge
# Assay type: organism-based
# run-parameters: in vivo, read-out: Activity
attribute-measured: mortality (%)

- O=C1CCCN2C=C(Br)SC2=N1: 0
- O=C1CCCN2C(=N1)Oc1ccc(Cl)cc12: 0
- O=C1CCCN2C(=N1)Sc1cc(Cl)ccc12: 0
- S=C1CCCN2C=CSC2=N1: 10

====

# Test system: Mus musculus
# procedure-summary: Neurotoxicity in Swiss albino mouse assessed as effect on motor activity at 0.75 mmol/kg, ip after 30 mins
# Type: toxicity, organism-based
# run-parameters: in vivo, 0.5 h
compounds and their reported Activity
attribute-measured: Activity (%)

- O=C1CCCN2C(=N1)Oc1ccc(Cl)cc12: 33
- S=C1CCCN2C=C(Br)SC2=N1: 52
- S=C1CCCN2C=CSC2=N1: 26
- O=C1CCCN2C=C(Br)SC2=N1: 13
- O=C1CCCN2C(=N1)Sc1cc(Cl)ccc12: 20

Hello, the source for this data is ChEMBL document CHEMBL2146421, in case you need it.
